Molecular target: T1, recombinant cyno BCMA, in house material (cyno, UniProt A0A2K5UD97 4-52)
T1 construct: also called Cyno in house BCMA
T1 sequence (A0A2K5UD97 entry or part of it): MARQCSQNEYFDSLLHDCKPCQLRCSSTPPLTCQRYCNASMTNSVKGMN
Assay: ProteOn SPR run 1, antibody captured on Protein A, 25C
binders and their reported Kd
MEASURED PROPERTY: Kd

binder="CA8 humanised J3M1 (antibody, human IgG1, kappa, V domains shown, Humanised CA8, heavy chain J3 with light chain M1, human IgG1 kappa; also called CA8 J3M1) VH: QVQLVQSGAEVKKPGSSVKVSCKGSGYTFTNYWMHWVRQAPGQGLEWMGATYRGHSDTYYNQKFKGRVTITADTSTSTAYMELSSLRSEDTAVYYCTRGAIYNGYDVLDNWGQGTLVTVSS VL: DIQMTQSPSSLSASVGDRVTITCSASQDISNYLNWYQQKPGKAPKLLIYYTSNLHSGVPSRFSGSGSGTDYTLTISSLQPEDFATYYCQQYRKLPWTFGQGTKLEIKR" result="0.196 nM"
binder="CA8 humanised J5M2 (antibody, human IgG1, kappa, V domains shown, Humanised CA8, heavy chain J5 with light chain M2, human IgG1 kappa; also called CA8 J5M2) VH: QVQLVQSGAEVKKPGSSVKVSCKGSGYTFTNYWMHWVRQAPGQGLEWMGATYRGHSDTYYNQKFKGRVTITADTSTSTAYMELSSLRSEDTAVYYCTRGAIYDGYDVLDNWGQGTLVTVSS VL: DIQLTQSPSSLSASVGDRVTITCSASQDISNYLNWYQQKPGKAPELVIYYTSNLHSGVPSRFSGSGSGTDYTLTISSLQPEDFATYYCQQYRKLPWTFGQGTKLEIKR" result="0.109 nM"
binder="CA8 humanised J3M0 (antibody, human IgG1, kappa, V domains shown, Humanised CA8, heavy chain J3 with light chain M0, human IgG1 kappa; also called CA8 J3M0) VH: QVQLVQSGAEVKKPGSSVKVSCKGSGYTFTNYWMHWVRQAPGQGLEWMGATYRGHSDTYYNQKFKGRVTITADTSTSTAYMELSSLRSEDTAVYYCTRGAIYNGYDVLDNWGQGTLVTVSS VL: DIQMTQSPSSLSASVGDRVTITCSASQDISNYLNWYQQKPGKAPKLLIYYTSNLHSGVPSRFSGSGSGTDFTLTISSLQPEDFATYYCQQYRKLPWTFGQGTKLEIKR" result="0.526 nM"
binder="CA8 humanised J0M0 (antibody, human IgG1, kappa, V domains shown, Humanised CA8, heavy chain J0 with light chain M0, human IgG1 kappa; also called CA8 J0M0) VH: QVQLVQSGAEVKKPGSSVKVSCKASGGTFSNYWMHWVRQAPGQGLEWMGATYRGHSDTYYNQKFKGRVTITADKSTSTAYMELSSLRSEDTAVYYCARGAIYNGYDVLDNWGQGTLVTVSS VL: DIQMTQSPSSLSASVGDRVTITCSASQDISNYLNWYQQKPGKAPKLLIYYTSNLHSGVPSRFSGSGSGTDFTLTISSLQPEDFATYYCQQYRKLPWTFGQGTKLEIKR" result="0.648 nM"
binder="CA8 humanised J1M2 (antibody, human IgG1, kappa, V domains shown, Humanised CA8, heavy chain J1 with light chain M2, human IgG1 kappa; also called CA8 J1M2) VH: QVQLVQSGAEVKKPGSSVKVSCKASGYTFTNYWMHWVRQAPGQGLEWMGATYRGHSDTYYNQKFKGRVTITADKSTSTAYMELSSLRSEDTAVYYCARGAIYNGYDVLDNWGQGTLVTVSS VL: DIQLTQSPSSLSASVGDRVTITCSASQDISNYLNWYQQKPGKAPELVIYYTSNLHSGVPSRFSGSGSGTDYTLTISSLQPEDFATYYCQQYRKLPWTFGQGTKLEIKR" result="0.303 nM"
